Recorded pKi values for a group of compounds are listed next.
Target: UniProt Q16790
Experiment: Inhibition of recombinant human carbonic anhydrase-9 incubated for 15 mins by stopped flow CO2 hydrase assay
pKi: −log10 of the molar value.
endpoint_label: pKi

>>> observed("Nc1nc(C(=O)N/N=C/c2ccc(Cl)cc2)nn1-c1ccc(S(N)(=O)=O)cc1")
7.14
>>> observed("Nc1nc(C(=O)N/N=C/c2ccc(N3CCCCC3)cc2)nn1-c1ccc(S(N)(=O)=O)cc1")
7.48
>>> observed("Nc1nc(NC(=O)Nc2ccc(F)cc2)nn1-c1ccc(S(N)(=O)=O)cc1")
8.11
>>> observed("C/C(=N\\NC(=O)c1nc(N)n(-c2ccc(S(N)(=O)=O)cc2)n1)c1ccccc1")
7.38
>>> observed("CC(=O)OC[C@@H]1O[C@@H](OCc2cn(-c3ccc(S(N)(=O)=O)cc3)nn2)[C@@H](OC(C)=O)[C@H](OC(C)=O)[C@H]1OC(C)=O")
8.01
>>> observed("COC(=O)c1nn(-c2ccc(S(N)(=O)=O)cc2)c2nc3cc(-c4cccs4)cc(-c4ccc([N+](=O)[O-])cc4)c3c(=O)n12")
9.80

Where do the numbers come from? From ChEMBL document CHEMBL4312026.
